B1: glmS ribozyme (parent)
chain: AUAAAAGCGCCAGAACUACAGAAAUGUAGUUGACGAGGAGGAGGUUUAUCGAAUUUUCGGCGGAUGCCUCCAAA

variants of: B1; assay: self-cleavage kobs at 40 uM GlcN6P; higher = faster cleavage; RNA array; conditions: with glucosamine-6-phosphate
This sample holds only a part of the variants without activity.
Kindly supply the reported self-cleavage kobs at 40 uM GlcN6P values for the records listed here.

Looking up AUAAAAGCGCCCGAACUACAGAAAUGUAGUUGACGAGGAGGAGGUUUAUCGAAUUUUCGGCCGAUGCCUCCAAA [A12C G62C] , I found its self-cleavage kobs at 40 uM GlcN6P recorded as < 1e-05 s⁻¹

Looking up AUAAAAGUGCCAGAACUACAGAAAUGUAGUUGACGAGGAGGAGGUUUAUCGAAUUUUCGGCGGACGCCUCCAAA [C8U U65C] , I found its self-cleavage kobs at 40 uM GlcN6P recorded as < 1e-05 s⁻¹

Looking up AUAAAACCGCCUGAACUACAGAAAUGUAGUUGACGAGUACGAGGUUUAGCGAAUUGUCGGCGGAUGCCUCCAAA [G7C A12U G38U G40C U49G U56G] , I found its self-cleavage kobs at 40 uM GlcN6P recorded as < 1e-05 s⁻¹

Looking up AUAAAAUGGCCUGAACUACAGAAAUGUAGUUGACGAGGAGGAGGUUUAGCGAAUUUUCGGCGGAUGCCUCCAAA [G7U C8G A12U U49G] , I found its self-cleavage kobs at 40 uM GlcN6P recorded as < 1e-05 s⁻¹

Looking up AUAAAAGCGCCAGAACUACAGAAAUGUAGUUGAUGAGGAGGAGGUUUAUCGAAUGUUCGGCGGAUGCCUCUAAA [C34U U55G C71U] , I found its self-cleavage kobs at 40 uM GlcN6P recorded as < 1e-05 s⁻¹

Looking up AUAAAAGCGUCAGAACUACAGAAAUGUAGUUGUCGAGGAGGAGGUUUAUCGUAUUUUCGGCGGAUGCCUCCAAA [C10U A33U A52U] , I found its self-cleavage kobs at 40 uM GlcN6P recorded as < 1e-05 s⁻¹

Looking up AUAAAAGCGCCAAAACUACAGAAAUGUAGUUGACGAGGAGGAGGUUUAUCGAAUUUUUGGCGGAUGGCUCCAAA [G13A C58U C67G] , I found its self-cleavage kobs at 40 uM GlcN6P recorded as < 1e-05 s⁻¹

Looking up AUAAAAGCGCCAGAACUACAGAAAUGUAGUUGACGAGGAGGCGGUUUAUCGAAUUUUCGGGGGAUGCCUCCAAA [A42C C61G] , I found its self-cleavage kobs at 40 uM GlcN6P recorded as < 1e-05 s⁻¹

Looking up AUAAAAGCGCAAGAACUACAGAAAUGUAGUUGACGAGGAGGAGGUUUACCGAAUUUUCGGCGGAUGCCUCCAAA [C11A U49C] , I found its self-cleavage kobs at 40 uM GlcN6P recorded as < 1e-05 s⁻¹

Looking up AUAAAAACGCUAGAACUACAGAAAUGUAGAUGACGAGGAGGAGGUUUAUCGAAUUUUCGGCGGAUGCCUCCAAA [G7A C11U U30A] , I found its self-cleavage kobs at 40 uM GlcN6P recorded as < 1e-05 s⁻¹

Looking up AUAAAAGCGCCAGGACUACAGAAAUGUAGUUGACGUGGAGGAUGUUUAUCGAAUUUUCGGCGGAUGCCUCCAAA [A14G A36U G43U] , I found its self-cleavage kobs at 40 uM GlcN6P recorded as < 1e-05 s⁻¹

Looking up AUAAAAGCGCCAGAACUACAGAAAUGUAGUUGACGAGGAGGAGGUUUAUCGGAUUUUCAGCGGAUGCCUCCAAA [A52G G59A] , I found its self-cleavage kobs at 40 uM GlcN6P recorded as < 1e-05 s⁻¹

Looking up AUAAAAGCGCCAGAACUACAGAAAUGUAGUGGACGAGGAGGAGGUUUAUCGAAUCUUCGGCGGAUGCCUCCAAA [U31G U55C] , I found its self-cleavage kobs at 40 uM GlcN6P recorded as 0.000203 s⁻¹

Looking up AUAAAAGCGCCAGAACUACAGAAAUGUAGUUAACGAGGAGGAGGUUUAUCGAACUUUCGGCGGAUGCCUCCAAA [G32A U54C] , I found its self-cleavage kobs at 40 uM GlcN6P recorded as 3.45e-05 s⁻¹

Looking up AUAAAAGCGCCAGAUAUACAGAAAUGUAGUUGACGAGGAAGAGGUUUAUCGAAUUUUCGGCGGAUGCUACCAAA [A15U C16A G40A C68U U69A] , I found its self-cleavage kobs at 40 uM GlcN6P recorded as < 1e-05 s⁻¹

Looking up AUAAAAGCGCCAAAACUACAGAAAUGUAGUUGAGGAGGAGGAGGUUUAUUGAAUUUUCGGCGGAUGGCUCCAAA [G13A C34G C50U C67G] , I found its self-cleavage kobs at 40 uM GlcN6P recorded as 0.000108 s⁻¹

Looking up AUAAAAGCGCCAGAACUACAGAAAUGUACUUGACGAGGAGGAGGUUUAUCGAAUUUUCGGUGGAUGCCUCCAAA [G29C C61U] , I found its self-cleavage kobs at 40 uM GlcN6P recorded as < 1e-05 s⁻¹

Looking up AUAAACGCGCCAGAACUACAGAAAUGUAGUUGACUAGGAGGAGGUUUAUCGAAUUUUCGGCGGAUGCCUCCAAA [A6C G35U] , I found its self-cleavage kobs at 40 uM GlcN6P recorded as < 1e-05 s⁻¹

Looking up AUAAAAGCGCCGGAACUACAGAAAUGUAGUUGACGAGGAGGAGGUUUAUCGAAUUUUCGGGGGAUGCCUCCAAA [A12G C61G] , I found its self-cleavage kobs at 40 uM GlcN6P recorded as < 1e-05 s⁻¹

Looking up AUAAAAGCGUCAGAACUACAGAAAUGUAGUUGACGAGGAGAAGGUUUAUCGAAUUUUCGGCGGAUGCCUCCAAA [C10U G41A] , I found its self-cleavage kobs at 40 uM GlcN6P recorded as < 1e-05 s⁻¹

Looking up AUAAAAGCGCCAGAAUUACAGAAAUGUACUUGACGAGGAGGAGGUUUAUCGAAUUUUCGGCGGAUGCCUCCAAA [C16U G29C] , I found its self-cleavage kobs at 40 uM GlcN6P recorded as 0.000447 s⁻¹

Looking up AUAAAAGCGCCAGAAGUACAGAAAUGUAGUUGACGAGGAGGGGGUUUAUCGAAUUUUCGGCGGAUGCCUCCAAA [C16G A42G] , I found its self-cleavage kobs at 40 uM GlcN6P recorded as 0.000233 s⁻¹

Looking up AUAAAAGCGCCAGAACUACAGAAAUGUAGUUGACGAGGAGGAGGUUUAUCGAAUUCUCGGCGGUUGCCUCCAAA [U56C A64U] , I found its self-cleavage kobs at 40 uM GlcN6P recorded as < 1e-05 s⁻¹

Looking up AUAAAAGCGCCAGGACUACAGAAAUGUAGAUGACGAGGAGGAGGUUUAUCGAAUUUUCGGCGGAUGCCUCCAAA [A14G U30A] , I found its self-cleavage kobs at 40 uM GlcN6P recorded as 0.000672 s⁻¹

Looking up AUAAAAGCGCCAGAACUACAGAAAUGUAGUUGACGAGGAGGAGGUUUAUGGAAUUUUCGGCGGAUGCCUGCAAA [C50G C70G] , I found its self-cleavage kobs at 40 uM GlcN6P recorded as 7.4e-05 s⁻¹

Looking up AUAAAAACGCCAGAACUACAGAAAUGUAGUUUACGAGGAGGAGGUUGAUUGAAUUUUCGGCGAAUGGCUCCAAA [G7A G32U U47G C50U G63A C67G] , I found its self-cleavage kobs at 40 uM GlcN6P recorded as 0.000556 s⁻¹

Looking up AUAAAAGCGCCAGAAUUACAGAAAUGUAGUUGACGAGGAGGAGGUUUAUCGAAUUAUCGGCGGAUGCCUCCAAA [C16U U56A] , I found its self-cleavage kobs at 40 uM GlcN6P recorded as 0.000484 s⁻¹

Looking up AUAAAAGCGUCAGAACUACAGAAAUGUAGUUGACGAGGAGGAGGUUUAUCGAAUUAUCGGCGGAUGCCUCCAAA [C10U U56A] , I found its self-cleavage kobs at 40 uM GlcN6P recorded as < 1e-05 s⁻¹

Looking up AUAAAAGCGCCAGAACUACAGAAAUGUAGUUGACGAGGAGGAGGCUUAUCGAAUUUUCGGCGGAAGGCUCCAAA [U45C U65A C67G] , I found its self-cleavage kobs at 40 uM GlcN6P recorded as 3.4e-05 s⁻¹

Looking up AUAAAAGCGCCCGAACUACAGAAAUGUAGUUGACGAGGAGGAGGUUGAUCGAAUUUUCGGCGGAUGCCUCCAAA [A12C U47G] , I found its self-cleavage kobs at 40 uM GlcN6P recorded as 9.09e-05 s⁻¹

Looking up AUAAAAGCGCCAGAACUACAGAAAUGUAGUUGACGACGAGGAGGUUUAUCGAAUCUUCGGCGGAUGCCUCCAAA [G37C U55C] , I found its self-cleavage kobs at 40 uM GlcN6P recorded as < 1e-05 s⁻¹

Looking up AUAAAAGCGCCAGAACUACAGAAAUGUAGGUGACGAGGACGAGGUUUAUCGAAUUUUCGGCGGAUGCCUCCAAA [U30G G40C] , I found its self-cleavage kobs at 40 uM GlcN6P recorded as 3.69e-05 s⁻¹

Looking up AUAAAAGCGCCAGAACUACAGAAAUGUAGUUGAAGAGGAGGAGGUUUAUCGAAUUUUCGGUGGAUGUCUCCAAA [C34A C61U C67U] , I found its self-cleavage kobs at 40 uM GlcN6P recorded as < 1e-05 s⁻¹

Looking up AUAAAAGCGCCAGAACUACAGAAAUGUAGUUGACGCGGAGGAGGUUUAUCGAAUUUUCGGCGGCUGCCUCCAAA [A36C A64C] , I found its self-cleavage kobs at 40 uM GlcN6P recorded as < 1e-05 s⁻¹

Looking up AUAAAAUCGCCAGAACUACAGAAAUGUAGUUGACGAGGAGGAGGUUUAUCGAAUUUACGGCGGAUGCCUCCAAA [G7U U57A] , I found its self-cleavage kobs at 40 uM GlcN6P recorded as < 1e-05 s⁻¹

Looking up AUAAAAGCGCUAGAACUACAGAAAUGUAGUUGACGAGAAGGAGGUUUAUCGAAUUUUCGGCGGAUGCCUCCAAA [C11U G38A] , I found its self-cleavage kobs at 40 uM GlcN6P recorded as < 1e-05 s⁻¹

Looking up AUAAAAGCGCCAGAACUACAGAAAUGUAGUUGACGAGGAGGAGGUUUCUCGAAUUUUCGGCGGAUGCAUCCAAA [A48C C68A] , I found its self-cleavage kobs at 40 uM GlcN6P recorded as < 1e-05 s⁻¹

Looking up AUAAAAGCGCCAGAACUACAGAAAUGUAAUUGGGGAGGAGGAGGUUUAUCGAAUUUUCGGCGGAUGUCUCCAAA [G29A A33G C34G C67U] , I found its self-cleavage kobs at 40 uM GlcN6P recorded as < 1e-05 s⁻¹

Looking up AUAAAAGCGCCAGAACUACAGAAAUGUAGUCGACGAGGAGGAGGUUUAUCGAAUUUUCGGCGGAUCGCUCCAAA [U31C G66C C67G] , I found its self-cleavage kobs at 40 uM GlcN6P recorded as < 1e-05 s⁻¹
